assay: method code SF-AS, from DOI: 10.1135/cccc19851642
QUANTITY: logP

CSc1ccc(C=C(C#N)C#N)o1
2.45
CCC(C)NC(=O)C=Cc1ccc([N+](=O)[O-])o1 (centres undefined)
2.28

1. CCCNC(=O)C=Cc1ccc([N+](=O)[O-])o1
2. CCCOC(=O)C=Cc1ccc([N+](=O)[O-])o1
Query string: Between 1 and 2 , which one shows the larger logP value? Give the label of your selection.
Result string: 2
(2: 2.67, 1: 1.86)

###

assay: method code SF-AS, from DOI: 10.1135/cccc19851642
QUANTITY: logP

COC(=O)C(C#N)=Cc1ccc(I)o1
2.75
CC(C)CNC(=O)C=Cc1ccc([N+](=O)[O-])o1
2.23
CC(C)(C)CNC(=O)C=Cc1ccc([N+](=O)[O-])o1
2.61
CCOC(=O)/C=C/c1ccc([N+](=O)[O-])o1
2.1
COC(=O)/C(C#N)=C/c1ccc(C)o1
2.09
N#CC(C#N)=Cc1ccc(I)o1
2.42
CCCCCCCCCCCC(C)NC(=O)C=Cc1ccc([N+](=O)[O-])o1 (stereo unspecified)
3.7
COC(=O)/C(C#N)=C/c1ccc(SC)o1
2.61
CC(C)NC(=O)/C=C/c1ccc([N+](=O)[O-])o1
1.8
CCCCCOC(=O)C=Cc1ccc([N+](=O)[O-])o1
3.4

P. CC(C)(C)NC(=O)C=Cc1ccc([N+](=O)[O-])o1
Q. CN(C)C(=O)/C=C/c1ccc([N+](=O)[O-])o1
Query string: Look at P and Q . Which one has the lower recorded logP number? Reply with the label of the item you choose.
Result string: Q
(Q: 0.82, P: 2.33)

A. CCOC(=O)C(=Cc1ccc([N+](=O)[O-])o1)C(=O)OCC
B. NC(=O)/C=C/c1ccc([N+](=O)[O-])o1
C. CCNC(=O)C=Cc1ccc([N+](=O)[O-])o1
Query string: Put the entries in order of logP, starting with the largest number. The response must list the labels following the requested ordering.
Result string: A, C, B
(A: 2.5, C: 1.39, B: 0.65)
